Target sequence: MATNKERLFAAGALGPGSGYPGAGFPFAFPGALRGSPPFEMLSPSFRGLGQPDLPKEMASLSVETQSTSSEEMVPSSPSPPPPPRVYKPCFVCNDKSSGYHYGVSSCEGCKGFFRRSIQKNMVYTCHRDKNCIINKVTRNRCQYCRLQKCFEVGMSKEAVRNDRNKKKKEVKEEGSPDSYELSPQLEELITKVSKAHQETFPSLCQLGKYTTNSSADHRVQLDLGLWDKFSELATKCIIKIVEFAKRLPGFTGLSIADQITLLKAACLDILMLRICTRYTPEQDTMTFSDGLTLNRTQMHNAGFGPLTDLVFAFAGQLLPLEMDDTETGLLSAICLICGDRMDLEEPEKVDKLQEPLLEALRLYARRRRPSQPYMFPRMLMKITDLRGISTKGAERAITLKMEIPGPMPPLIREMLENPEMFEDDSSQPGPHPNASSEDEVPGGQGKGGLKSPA
pKd: −log10 of the molar value.
Quantity Measured: pKd

Answer with the recorded pKd for the molecule listed here: `CCCN(CCC)C1(c2ccc(C#Cc3ccc(C(=O)O)cc3)cc2)CC1`
< 5.00

Answer with the recorded pKd for the molecule listed here: `CC1(C)CC(C)(C)c2cc(C(=O)Oc3ccc(CC(=O)O)cc3)ccc2O1`
< 5.00

---

Task for the reader: assign each of the following compounds its reported Cutaneous Toxicity Score (Blackjack Score).
# Tested on: SKH1-hrBR or hairless mouse
# Experiment: topical skin irritation test in hairless mice
# Type: in vivo
# Setup Conditions: 100 nmole (nmol/25 g), topical in acetone, once daily days 1 through 5; mean ±SD, range 0-21
Provide a numeric answer; units are not to be included.

Report measured Cutaneous Toxicity Score (Blackjack Score) on SKH1-hrBR or hairless mouse; entry: `CC1(C)CC(C)(C)c2cc(C#Cc3ccc(CC(=O)O)c(F)c3)cc(C3CC3)c2O1`
1

Report measured Cutaneous Toxicity Score (Blackjack Score) on SKH1-hrBR or hairless mouse; entry: `CCN(Cc1ccc(C#Cc2ccc(CC(=O)O)cc2)cc1C)C1CC1`
1

Report measured Cutaneous Toxicity Score (Blackjack Score) on SKH1-hrBR or hairless mouse; entry: CN(C1CC1)C1CCC(C)(C)c2cc(C#Cc3ccc(CC(=O)O)c(F)c3)ccc21 (stereo not drawn)
0

Report measured Cutaneous Toxicity Score (Blackjack Score) on SKH1-hrBR or hairless mouse; entry: CC1(C)CCC(n2ccnc2)c2ccc(C#Cc3ccc(CC(=O)O)cc3)cc21 (stereo not drawn)
1

Report measured Cutaneous Toxicity Score (Blackjack Score) on SKH1-hrBR or hairless mouse; entry: `CC1(C)CN(C2CC2)Cc2ccc(C#Cc3ccc(CC(=O)O)c(F)c3)cc21`
0

Report measured Cutaneous Toxicity Score (Blackjack Score) on SKH1-hrBR or hairless mouse; entry: `CC1(C)CC2(CC2)Oc2c(C3CC3)cc(C#Cc3ccc(CC(=O)O)c(F)c3)cc21`
1

Report measured Cutaneous Toxicity Score (Blackjack Score) on SKH1-hrBR or hairless mouse; entry: `CC1(C)CCC(=O)c2ccc(C#Cc3ccc(CC(=O)O)cc3)cc21`
0

Report measured Cutaneous Toxicity Score (Blackjack Score) on SKH1-hrBR or hairless mouse; entry: CN(C1CC1)C1CCC(C)(C)c2cc(C#Cc3ccc(CC(=O)O)cc3)ccc21 (stereo not drawn)
5

Report measured Cutaneous Toxicity Score (Blackjack Score) on SKH1-hrBR or hairless mouse; entry: `CC1(C)CC2(CC2)Oc2c(C3CC3)cc(C#Cc3ccc(CC(=O)O)cc3)cc21`
1

Report measured Cutaneous Toxicity Score (Blackjack Score) on SKH1-hrBR or hairless mouse; entry: `CC1(C)CC(C)(C)c2cc(C#Cc3ccc(CC(=O)O)cc3)cc(C3CC3)c2O1`
1

Report measured Cutaneous Toxicity Score (Blackjack Score) on SKH1-hrBR or hairless mouse; entry: `CC1(C)CC2(CC2)Oc2c(C3CC3)cc(C(=O)Oc3ccc(CC(=O)O)cc3)cc21`
0

Report measured Cutaneous Toxicity Score (Blackjack Score) on SKH1-hrBR or hairless mouse; entry: `CC1(C)CCC(=O)c2ccc(C#Cc3ccc(CC(=O)O)c(F)c3)cc21`
1

---

# Test system: SKH1-hrBR or hairless mouse
# Experiment: topical skin irritation test in hairless mice
# Format: in vivo
# Setup Conditions: 1000 nmole (nmol/25 g), topical in acetone, once daily days 1 through 5; mean ±SD, range 0-21
Quantity Measured: Cutaneous Toxicity Score (Blackjack Score)
Provide a numeric answer; units are not to be included.

Answer with the recorded Cutaneous Toxicity Score (Blackjack Score) for the compound listed here: CCN(Cc1ccc(C#Cc2ccc(CC(=O)O)cc2)cc1C)C1CC1 [Compound 131]
1

Answer with the recorded Cutaneous Toxicity Score (Blackjack Score) for the compound listed here: CC1(C)CCC(=O)c2ccc(C#Cc3ccc(CC(=O)O)c(F)c3)cc21 [Compound 15]
5

Answer with the recorded Cutaneous Toxicity Score (Blackjack Score) for the compound listed here: CC1(C)CC2(CC2)Oc2c(C3CC3)cc(C#Cc3ccc(CC(=O)O)cc3)cc21 [Compound 48]
7

Answer with the recorded Cutaneous Toxicity Score (Blackjack Score) for the compound listed here: CC1(C)CN(C2CC2)Cc2ccc(C#Cc3ccc(CC(=O)O)c(F)c3)cc21 [Compound 22]
1

---

Task for the reader: assign each of the following compounds its reported Cutaneous Toxicity Score (Blackjack Score).
# Test system: SKH1-hrBR or hairless mouse
# Experiment: topical skin irritation test in hairless mice
# Type: in vivo
# Setup Conditions: 1000 nmole (nmol/25 g), topical in acetone, once daily days 1 through 5; mean ±SD, range 0-21
# Excerpt: Mice were housed individually throughout the dosing period. Doses are disclosed as nmol/25 g. The grading scale used is as follows: Values can range from 0-9. Values can range from 0-8.
Provide a numeric answer; units are not to be included.

Report measured Cutaneous Toxicity Score (Blackjack Score) on SKH1-hrBR or hairless mouse; entry: `CC1(C)CC(C)(C)c2cc(C#Cc3ccc(CC(=O)O)c(F)c3)cc(C3CC3)c2O1`
10

Report measured Cutaneous Toxicity Score (Blackjack Score) on SKH1-hrBR or hairless mouse; entry: CC1(C)CCC(n2ccnc2)c2ccc(C#Cc3ccc(CC(=O)O)cc3)cc21 (centres unmarked)
5

Report measured Cutaneous Toxicity Score (Blackjack Score) on SKH1-hrBR or hairless mouse; entry: `CC1(C)CC(C)(C)c2cc(C#Cc3ccc(CC(=O)O)cc3)cc(C3CC3)c2O1`
11

Report measured Cutaneous Toxicity Score (Blackjack Score) on SKH1-hrBR or hairless mouse; entry: CN(C1CC1)C1CCC(C)(C)c2cc(C#Cc3ccc(CC(=O)O)cc3)ccc21 (centres unmarked)
12

Report measured Cutaneous Toxicity Score (Blackjack Score) on SKH1-hrBR or hairless mouse; entry: CN(C1CC1)C1CCC(C)(C)c2cc(C#Cc3ccc(CC(=O)O)c(F)c3)ccc21 (centres unmarked)
10

Report measured Cutaneous Toxicity Score (Blackjack Score) on SKH1-hrBR or hairless mouse; entry: `CC1(C)CC2(CC2)Oc2c(C3CC3)cc(C(=O)Oc3ccc(CC(=O)O)cc3)cc21`
0

Report measured Cutaneous Toxicity Score (Blackjack Score) on SKH1-hrBR or hairless mouse; entry: `CC1(C)CC2(CC2)Oc2c(C3CC3)cc(C#Cc3ccc(CC(=O)O)c(F)c3)cc21`
8

Report measured Cutaneous Toxicity Score (Blackjack Score) on SKH1-hrBR or hairless mouse; entry: `CC1(C)CCC(=O)c2ccc(C#Cc3ccc(CC(=O)O)cc3)cc21`
6

---

# Test system: SKH1-hrBR or hairless mouse
# Experiment: topical skin irritation test in hairless mice
# Type: in vivo
# Setup Conditions: 300 nmole (nmol/25 g), topical in acetone, once daily days 1 through 5; mean ±SD, range 0-21
# Excerpt: Mice were housed individually throughout the dosing period. Doses are disclosed as nmol/25 g. The grading scale used is as follows: Values can range from 0-9. Values can range from 0-8.
Quantity Measured: Cutaneous Toxicity Score (Blackjack Score)

Answer with the recorded Cutaneous Toxicity Score (Blackjack Score) for the molecule listed here: CC1(C)CCC(n2ccnc2)c2ccc(C#Cc3ccc(CC(=O)O)cc3)cc21 (centres unmarked) [Compound 137]
1 ± 1

Answer with the recorded Cutaneous Toxicity Score (Blackjack Score) for the molecule listed here: CCN(Cc1ccc(C#Cc2ccc(CC(=O)O)cc2)cc1C)C1CC1 [Compound 131]
0 ± 1

Answer with the recorded Cutaneous Toxicity Score (Blackjack Score) for the molecule listed here: CC1(C)CC2(CC2)Oc2c(C3CC3)cc(C#Cc3ccc(CC(=O)O)c(F)c3)cc21 [Compound 50]
3 ± 2

Answer with the recorded Cutaneous Toxicity Score (Blackjack Score) for the molecule listed here: CC1(C)CN(C2CC2)Cc2ccc(C#Cc3ccc(CC(=O)O)c(F)c3)cc21 [Compound 22]
0 ± 0

Answer with the recorded Cutaneous Toxicity Score (Blackjack Score) for the molecule listed here: CN(C1CC1)C1CCC(C)(C)c2cc(C#Cc3ccc(CC(=O)O)c(F)c3)ccc21 (centres unmarked) [Compound 18]
5 ± 2

Answer with the recorded Cutaneous Toxicity Score (Blackjack Score) for the molecule listed here: CC1(C)CC2(CC2)Oc2c(C3CC3)cc(C#Cc3ccc(CC(=O)O)cc3)cc21 [Compound 48]
3 ± 1

Answer with the recorded Cutaneous Toxicity Score (Blackjack Score) for the molecule listed here: CC1(C)CC2(CC2)Oc2c(C3CC3)cc(C(=O)Oc3ccc(CC(=O)O)cc3)cc21 [Compound 58]
0 ± 0

Answer with the recorded Cutaneous Toxicity Score (Blackjack Score) for the molecule listed here: CN(C1CC1)C1CCC(C)(C)c2cc(C#Cc3ccc(CC(=O)O)cc3)ccc21 (centres unmarked) [Compound 8]
8 ± 3

Entry source: patent US6369261B1
